Biological target: T1, mouse AQP3 in cell lysate of HEK293T cells overexpressing mouse AQP3 and a myc-biotinylated tag (mouse, UniProt Q8R2N1 1-292, biotinylated tag (site not given))
T1 construct: also called AQP3 (cell lysate); not shown: myc-biotinylated tag
T1 sequence (looked up): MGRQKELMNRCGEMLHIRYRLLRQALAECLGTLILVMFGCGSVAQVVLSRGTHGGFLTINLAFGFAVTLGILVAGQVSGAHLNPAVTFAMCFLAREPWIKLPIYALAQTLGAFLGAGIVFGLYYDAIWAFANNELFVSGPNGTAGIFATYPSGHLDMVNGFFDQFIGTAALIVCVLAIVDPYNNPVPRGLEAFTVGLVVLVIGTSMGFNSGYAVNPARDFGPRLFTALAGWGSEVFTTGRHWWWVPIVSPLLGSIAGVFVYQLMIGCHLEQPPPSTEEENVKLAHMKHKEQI
Experiment: ELISA on lysate of HEK293T cells overexpressing mouse AQP3 and a myc-biotinylated tag
measured quantity: binding result

binder: antibody J (antibody, mouse IgG2a, kappa, V domains shown, also called anti AQP3 mAb J; Ab) VH: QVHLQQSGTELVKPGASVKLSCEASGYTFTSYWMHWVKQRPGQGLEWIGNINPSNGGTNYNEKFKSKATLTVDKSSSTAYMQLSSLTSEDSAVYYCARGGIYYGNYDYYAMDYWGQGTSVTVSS VL: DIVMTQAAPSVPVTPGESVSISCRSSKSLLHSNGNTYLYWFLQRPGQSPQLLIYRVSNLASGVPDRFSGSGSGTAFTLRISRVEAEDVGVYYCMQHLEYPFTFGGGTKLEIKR
measurement: binds
//
binder: antibody D (antibody, mouse IgG2a, kappa, V domains shown, also called anti AQP3 mAb D) VH: EVQLQQSGAELVRPGASVTLSCKASGYTFTDYEMHWVQQTPVHGLEWIGGIDPETGGTGYNQKFKGKAILTADKSSSTAYMELRSLTSEDSAVYFCTRHGSYAMDYWGQGTSVTVSS VL: DIVMTQSPKFMSTSVGDRVSITCKASQDVSTAVAWYQQKPGQSPKLLIYWASTRHTGVPDRFTGSGSGTDYTLTISSVQAEDLALYYCQQHYSTPPTFGGGTRLEIKR
measurement: binds
//
binder: antibody G (antibody, mouse IgG2a, kappa, V domains shown, also called anti AQP3 mAb G) VH: QVQLKQSGAELVRPGASVTLSCKASGYTFTDYEMHWVKQTPVHGLEWIGGIDPETGGTAYNQKFKGKAILTADKSSSTAYMELRSLTSEDSAVYYCTRWGAITSFVALRGFAYWGQGTLVTVSS VL: DIQMTQSPSSLSVSAGEKVTMSCKSSQSLLNSGNQKNYLAWYQQKPGQPPKLLIYGASTRESGVPDRFTGSGSGTDFTLTISSVQAEDLAVYYCQNDHSYPPTFGAGTKLELKR
measurement: binds

These data points were gathered from patent US20210130455A1.
